# key: entry, value: melting point

| Structure As Smiles | melting point |
| --- | --- |
| CN(C)c1nc(NCc2ccc(NC(=O)C3CCN(Cc4ccccc4)CC3)cc2)c2ccc(I)cc2n1 | 194 °C |
| CN(C)Cc1cnc2n1-c1ccc(Cl)cc1C(c1ccccc1)=NC2 | 181 to 182 °C |
| CCN(CC)Cc1ccc(-c2ccc3c(Nc4cc(OC)c(Cl)cc4Cl)c(C#N)cnc3c2)cc1 | 191 to 195 °C |

----------
# melting point per entry

| Compound | melting point |
| --- | --- |
| Cc1ccc(C(C)N(O)C(N)=S)s1 (stereo unspecified) | 155 °C |
| CCn1cc(C(N)=O)c(=O)c2ccc(-c3ccncc3)cc21 | > 300 °C |
| CCc1noc(NC(C)=O)c1Cl | 113 to 114 °C |
| O=C(c1ccc(F)cc1)c1ccc(-c2ccccc2)cc1 | 149 °C |
| COC(=O)C[C@H]1C[C@@H](CCc2c(-c3ccc(F)cc3)c(-c3ccc(F)cc3)cn2C(C)C)OC(C)(C)O1 | 55 to 57 °C |
| CCCCc1ncc(/C=C(\C)C(=O)O)n1Cc1ccccc1Cl | 228 to 229 °C |

----------
This listing pairs compounds with measured melting point.

| Compound | melting point |
| --- | --- |
| CCOC(=O)N1CCN(C2c3ccccc3C=Cc3ccccc32)CC1 | 159 to 160 °C |
| Cc1cccc2c(/C=C/C(=O)O)cc(C(C)C)c(O)c12 | 122 to 123 °C |
| Cc1cc([N+](=O)[O-])ccc1N1CCOCC1=O | 113 to 114 °C |
| COc1cccc(NC(=O)NC2C(=O)N(CC34CC5CC(CC(C5)C3)C4)c3ccccc3N(c3ccccc3)C2=O)c1 (centres undefined) | 267 to 268 °C |
| COc1ccccc1-c1coc2cc(O)c(Cl)cc2c1=O | 228 to 230 °C |
| COc1ccc(-c2c3c(cc4ccc(OC)c(OC)c24)C(=O)NC3)cc1 | 258 to 260 °C |
| COC(=O)c1ccc(C(O)C#Cc2cc(-c3cccs3)c(OC)cc2OC)cc1 (centres undefined) | 128 to 130 °C |
| COc1ccc(-c2ccc(N)nn2)cc1OC(C)C | 184 °C |
| O=C(O)c1ccccc1Sc1cccc(OCc2ccc3cc(Cl)ccc3n2)c1 | 177 to 179 °C |
| COc1ccc(N2C[C@@H](COS(C)(=O)=O)OC2=O)cc1 | 234 to 236 °C |
| O=C1NC[C@@H]2CCCC[C@@H]12 (relative stereo) | 85 to 88 °C |
| O=C1N(CCN2CCC(c3noc4cc(F)ccc34)CC2)CCN1c1ccccc1 | 158 to 160 °C |
| O=C(O)C1(c2ccccc2)CC2CC2C1 (centres undefined) | 78 to 125 °C |
| O=c1c(Cl)c(-c2ccc(F)cc2)c1=O | 113 to 115 °C |

----------
| Compound | melting point |
| --- | --- |
| COC1(OC)CN(c2nc3c(cc2F)C=C(C(=O)O)CN3c2ccc(F)cc2F)CC1C (stereo unspecified) | 179 to 182 °C |
| O=C(O)c1ccc(C(F)(F)F)cc1-c1ccc2c(c1)OC[C@H](Cc1ccccc1)[C@H]2O | 142 °C |
| Nc1nc2ccccc2c2c1ncn2CCOCCCc1ccccn1 | 138 to 140 °C |
| COc1ccc(/C=C/c2nc3ncccc3c(=O)o2)cc1OC | 228 to 231 °C |
| CCC1(SC)CCC2C3CCC4=CC(=O)C=CC4(C)C3(F)C(O)CC21C (stereo unspecified) | 252 to 254 °C |
| Nc1ccc(SCc2nc(Cl)ccc2Cl)cc1 | 110 to 111 °C |
| Fc1ccc(-c2nc(SC(F)(F)C(F)F)[nH]c2-c2ccncc2)cc1 | 242 to 248 °C |
| CC(C)(C)Nc1c(NCc2cc(Cl)ccc2Cl)c(=O)c1=O | 236 °C |
| O=c1c(=NO)c2ccccc2oc2cc(F)ccc12 | 196 to 198 °C |
| CCOC(=O)c1c(CBr)nc2cc(OC)c(OC)cc2c1-c1ccc(OC)c(OC)c1 | 135 to 136 °C |
| CCCCCCCCCCCCCCCCOC(=O)c1cccc(N)c1 | 52 to 53 °C |
| O/N=C\c1cccc(Cl)c1 | 64 to 66 °C |
| COc1ccc2[nH]c(C(=O)NCCN(C)C)c(-c3ccccc3F)c2c1 | 184 to 186 °C |
| COC(=O)CCC(C)C1CCC2C3CC=C4C(C)(C)C(O)CCC4(C)C3CCC12C (stereo unspecified) | 136 to 138 °C |
| CC(C)N1C(=O)NC(c2ccc3c(c2)OCCO3)c2cc3c(cc21)OCO3 (stereo unspecified) | 185 to 187 °C |
| O[C@@H](CNCCOc1ccc2oc(-c3ccon3)cc2c1)COc1ccccc1F | 109 to 110 °C |

----------
| Compound | melting point |
| --- | --- |
| CN(C)c1ccc(N(c2ccccc2)C2(c3ccc(N(C)C)cc3)OC(=O)c3ccccc32)cc1 (stereo unspecified) | 163 to 166 °C |
| COc1cccc2c1cc(C(=O)O)n2CC(=O)OC(C)(C)C | 222 to 224 °C |
| COc1ccc(-n2cc(C(=O)O)c(C)n2)cc1 | 176 to 178 °C |
| CCOC(=O)C1=C(C)NC(CO)=C(C(=O)OCC)C1c1ccccc1OC (stereo unspecified) | 125 to 126 °C |
| Cc1cc2c(s1)N(C)c1ccccc1N=C2N1CCN(C)CC1 | 126 to 128 °C |
| COc1cc(CC(=O)CCNCCOc2ccc(C(=O)O)cc2OC)ccc1NC(=O)Nc1ccccc1C | 115 to 118 °C |
| CC(C)(C)OC(=O)C(CNC(=O)c1ccc(O)cc1)NC(=O)OCc1ccccc1 (stereo unspecified) | 69 °C |
| CS(=O)(=S)OCCC(=O)O (stereo unspecified) | 44 to 46 °C |
| Cc1ccc(C)c(C2C(=O)CC(C)C2=O)c1 (stereo unspecified) | 138 to 140 °C |
| CCCCCCCCCOc1ccc(F)c(C(N)=O)c1Cl | 64 to 66 °C |
| CC(=O)Oc1cc(O)c(C=O)c(OC(C)=O)c1 | 103 to 105 °C |
| CC12CCC3c4cc(C=O)c(O)cc4CCC3C1CCC2O (stereo unspecified) | 219 to 221 °C |
| COc1cc(O)cc2nc(-c3ccc(O)cc3)oc12 | 225 to 228 °C |
| CCc1cn(C2CC(O)C(CNC(=O)C(C)Oc3ccc(Cl)cc3Cl)O2)c(=O)[nH]c1=O (mixture of isomers) | 240 to 243 °C |
| CCOC(=O)c1nc(-c2ccc(=O)[nH]c2)c(-c2ccccc2)nc1N | 230 to 238 °C |
| CN1CCC(OC2c3ccccc3CCn3c2nc(-c2ccc(C(=O)OC(C)(C)C)cc2)c3C#N)CC1 (stereo unspecified) | 95 °C |

----------
The entries below are paired with their reported melting point.
Metric Name: melting point

| Molecule | Measured Value |
| --- | --- |
| O=c1c(Br)c(OCc2ccccc2)ccn1CCc1cccs1 | 128 to 130 °C |
| COc1ccc2cc(CC(=O)OCC(C)=O)ccc2c1 | 122 to 124 °C |
| O=C1CCC(N2Cc3c(CNC(=O)c4ccccc4)cccc3C2=O)C(=O)N1 (stereo not given) | 228 to 230 °C |
| CCOC(=O)c1ncn2c1c(S)nc1ccccc12 | 251 to 253 °C |
| Cc1ccn2c(=O)c(CCN3CCC(c4c[nH]c5ccccc45)CC3)c(C)nc2c1 | 236 °C |
| O=C1CCN(C(=O)C(F)(F)F)CC1 | 68 °C |
| O=C(O)c1ccc2cc(-c3ccc(OCC(O)CO)c(C45CC6CC(CC(C6)C4)C5)c3)ccc2c1 (stereo not given) | 278 °C |
| CCOC(=O)c1cn(CCCO)c(=O)c2cc(Cl)ccc12 | 193 °C |
| COc1ccc(C(=NO)c2ccccc2F)c(O)c1Cl | 184 to 186 °C |
| CCc1nc(C)c(CC(=O)O)c(=O)n1Cc1ccc(-c2ccccc2-c2nnn[nH]2)cc1 | 325 to 329 °C |
| Oc1ccc2c(ccc3ccccc32)c1 | 165 to 167 °C |
| O=C(C=Cc1cc([N+](=O)[O-])ccc1Cl)N1CCc2c([nH]c3ccccc23)C1c1ccc2c(c1)OCO2 (stereo not given) | 146 °C |
| CCCOc1ccc(S(=O)(=O)NC)cc1C1=NC(=O)C2=NC=NC2=N1 | 245 to 246 °C |
| O=C(N[C@H](Cc1ccc(C(F)(F)F)cc1)[C@@H](O)c1ccc(F)cc1)c1cccc2c1-c1ccccc1C2=O (racemic) | 231 to 232 °C |
| CN1C(=O)[C@@](NC(=O)Nc2cccc(Nc3nnn[nH]3)c2)(C2CCCCC2)N=Cc2ccccc21 | 190 to 193 °C |
| O=S(=O)(O)COc1ccc(Cl)cc1Br | > 315 °C |
| Cc1cc(-c2n[nH]c(=O)c(O)c2O)ccc1O | 265 to 267 °C |
| CC(C)CN1C(=O)[C@@H](CC(=O)O)O[C@H](c2ccccc2OC(C)C)c2cc(Cl)ccc21 (relative stereo) | 146 to 149 °C |
| CC(=O)N1CCN(CC(=O)Nc2ccc3[nH]c(=O)c4cccc5c4c3c2C5)CC1 | 155 to 157 °C |
| N#CNC(=O)C=NNc1ccc(F)cc1 | 265 to 267 °C |
| CN1CCN(c2ccc(NC(=O)n3ccc4cc(Oc5cc(CC(N)=O)ncn5)ccc43)cc2C(F)(F)F)CC1 | 238 to 240 °C |
| Cc1cccc(C(=O)Cc2ccnc(NC(=O)c3ccccc3)c2)c1 | 67 to 69 °C |
| FC(F)(F)n1cc(Br)cn1 | 4 °C |
| CCn1cc(C#Cc2cccc(OC)c2)cc1C(=O)O | 129 °C |
| COC(C(=O)O)c1ccc2nc(-c3ccc(Cl)cc3)oc2c1 (stereo not given) | 164 to 166 °C |
| COc1cccc2c1CCCC2N1CCN(C)CC1 (stereo not given) | 69 to 71 °C |
| CCCCCCCCc1ccc(OC2=CC(=O)OC2O)cc1 (stereo not given) | 59 to 61 °C |
| CCOC(=O)c1cc(-c2ccc(Cl)cc2)nc2ccnn12 | 160 to 161 °C |
| O=C(c1ccccc1)c1c(F)ccc([N+](=O)[O-])c1F | 75.8 to 77.2 °C |
| CC(=O)O[C@@H]1OCC[C@@H]1NC(=O)[C@H](Cc1ccccc1)NC(=O)OCc1ccccc1 | 175 to 176 °C |
| O=C1CC(=Cc2c[nH]c3ccccc23)C(=O)O1 | 90 to 91 °C |
| Nc1ncccc1OCc1c(F)cccc1Cl | 123 to 130 °C |
| COC(=O)COc1ccc(CC(C)=O)cc1 | 63 °C |
| CCCCc1nc2c(N)nc3ccccc3c2n1CCCCSc1ccc(F)cc1F | 122 to 126 °C |
| CC(=O)SCCN1C(=O)c2ccccc2C1=O | 112 to 114 °C |
